method-summary: Half life in Wistar Han rat at 1 mg/kg, iv or 2 mg/kg, po
Assay type: ADME, organism-based
protocol-conditions: in vivo
metric-name: half-life (min)
Answers are plain numbers, in min.

GET /value?item= "C[C@](O)(c1cncc(-c2nc3ccc(F)cn3c2C2CC2)c1)C(F)(F)F" &field=half-life returns 36.6

* * *

method-summary: in vitro
protocol-conditions: rat, liver microsomes
metric-name: remaining at 0.5 h, 1 µM (%)
One number for each entry, in %.

Solved entries (count: 4):
smiles-structure	result-number
C[C@@](O)(c1cncc(-c2nc3ccc(F)cn3c2C2CC2)c1)C(F)(F)F	33
Fc1cncc(-c2nc3cc(F)c(Cl)cn3c2C2CC2)c1	80
C[C@](O)(c1cncc(-c2nc3ccc(F)cn3c2C2CC2)c1)C(F)(F)F	38
Fc1cncc(-c2nc3ccc(F)cn3c2C2CC2)c1	70

Turning now to a further record.
Value of measured remaining at 0.5 h, 1 µM for the entry "CCc1c(F)cncc1-c1nc2ccc(F)cn2c1C1CC1" : 2

* * *

Consider the following molecules; for each one, report its remaining at 0.5 h, 1 µM.
method-summary: in vitro
protocol-conditions: rhesus monkey, liver microsomes
Give bare numbers, in %.

smiles-structure	remaining at 0.5 h, 1 µM [%]
Fc1cncc(-c2nc3ccc(F)cn3c2C2CC2)c1	29

Dear colleague, could you send me remaining at 0.5 h, 1 µM for each of the items below? Thanks.
1. C[C@](O)(c1cncc(-c2nc3ccc(F)cn3c2C2CC2)c1)C(F)(F)F
2. CCc1c(F)cncc1-c1nc2ccc(F)cn2c1C1CC1
3. C[C@@](O)(c1cncc(-c2nc3ccc(F)cn3c2C2CC2)c1)C(F)(F)F

stdout:
1: 31; 2: 0; 3: 31

Looking up "Fc1cncc(-c2nc3cc(F)c(Cl)cn3c2C2CC2)c1" , I see its remaining at 0.5 h, 1 µM listed as 87

* * *

method-summary: MRT in Wistar Han rat at 1 mg/kg, iv or 2 mg/kg, po
Format: ADME, organism-based
protocol-conditions: in vivo
metric-name: MRT
Give the value; after it, write the unit.

Note to self: MRT recorded for "C[C@](O)(c1cncc(-c2nc3ccc(F)cn3c2C2CC2)c1)C(F)(F)F" was 34.8 min

* * *

method-summary: Plasma clearance in Wistar Han rat at 1 mg/kg, iv or 2 mg/kg, po
Format: ADME, organism-based
metric-name: clearance (mL/min/kg)
One number for each entry, in mL/min/kg.

Reported clearance of "C[C@](O)(c1cncc(-c2nc3ccc(F)cn3c2C2CC2)c1)C(F)(F)F" : 23

* * *

method-summary: Cmax in Wistar Han rat at 1 mg/kg, iv or 2 mg/kg, po
Type: ADME, organism-based
protocol-conditions: in vivo
metric-name: Cmax (nM)
Numbers only, in nM.

The molecule identified as "C[C@](O)(c1cncc(-c2nc3ccc(F)cn3c2C2CC2)c1)C(F)(F)F" registered its Cmax at 700
